From: patent US20190135908A1

Each entry below carries its recorded Kd.
assayed-target: T1, Human His-GDF15: HIS-tagged human GDF15 (human, UniProt Q99988 195-308)
T1 construct: not shown: His tag
T1 sequence: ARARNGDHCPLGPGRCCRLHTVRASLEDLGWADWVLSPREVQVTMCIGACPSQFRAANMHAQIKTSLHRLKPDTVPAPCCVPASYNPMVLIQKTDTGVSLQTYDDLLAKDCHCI
test-description: Biacore SPR, IgG captured via anti-human Fc, GDF15 in flow
State the answer as a number, implicitly in pM.

These recorded examples may help you get a feel for the data.
• ABGDF15-A (antibody, human IgG1, kappa, V domains shown, captured through anti-human Fc in the Biacore assay) VH: EVQLVQSGAEVKKPGESLKISCKGSGYSFTDYWISWVRQMPGKGLEWMGIIDPSGSYTIYSPSFQGQVTISADKSISTAYLQWSSLKASDTAMYYCARVSYYGGYFDIWGQGTLVTVSS VL: DIQMTQSPSSLSASVGDRVTITCRASQSISNNLNWYQQKPGKAPKLLIYAASNLQSGVPSRFSGSGSGTDFTLTISSLQPEDFATYYCFQLDHSPFTFGQGTKVEIKR = 2.62
• ABGDF15-G (antibody, human IgG1, kappa, V domains shown, captured through anti-human Fc in the Biacore assay) VH: QVQLVQSGAEVKKPGSSVKVSCKASGGTFSSHYINWVRQAPGQGLEWMGGIIPAFGGANYAQKFQGRVTITADESTSTAYMELSSLRSEDTAVYYCARFGSVYVSRYSSYYHMDVWGQGTLVTVSS VL: DIQMTQSPSSLSASVGDRVTITCRASQTIYRSLAWYQQKPGKAPKLLIYGASILQSGVPSRFSGSGSGTDFTLTISSLQPEDFATYYCLQRYTSPFTFGQGTKVEIKR = 136
• ABGDF15-C (antibody, human IgG1, lambda, V domains shown, captured through anti-human Fc in the Biacore assay) VH: QVQLVQSGAEVKKPGSSVKVSCKASGGTFRSYAVSWVRQAPGQGLEWMGGIIPIFGTANYAQKFQGRVTITADESTSTAYMELSSLRSEDTAVYYCARGPIIMGYQFGLFDHWGQGTLVTVSS VL: SYELTQPPSVSVSPGQTASITCSGDNIGSHIVSWYQQKPGQSPVLVIYDKSNRPSGIPERFSGSNSGNTATLTISGTQAMDEADYYCQTWDSIGSVVFGGGTKLTVLG = 42.2

*Q* Which Kd reading was recorded for the binder ABGDF15-B (antibody, human IgG1, lambda, V domains shown, captured through anti-human Fc in the Biacore assay) VH: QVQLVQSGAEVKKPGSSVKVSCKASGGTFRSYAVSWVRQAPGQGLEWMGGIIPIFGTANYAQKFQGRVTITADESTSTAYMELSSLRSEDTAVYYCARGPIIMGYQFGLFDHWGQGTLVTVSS VL: SYELTQPLSVSVALGQTARITCSGDNIGSHIVSWYQQKPGQAPVLVIYDKSNRPSGIPERFSGSNSGNTATLTISRAQAGDEADYYCQTWDSIGSVVFGGGTKLTVLG ?
*A* 61.4
